meta.source: patent US20250000864A1

- ASSAY TEXT: Metabolic stability in rat liver microsomes
- Assay type: in vitro ADME, SD rat
- RUN CONDITIONS: Sprague-Dawley (SD); Rat liver microsomes
Collected CLint scaled values appear next to each entry.

INSERT INTO measurements (smiles_code, reported_measurement) VALUES
  ('CONC(=O)Nc1ccc(-c2sc3c(c2CN(C)C)c(=O)n(-c2cccc(OC(F)F)c2F)c(=O)n3Cc2c(F)cccc2F)cc1', '62.6 mL/min/kg'),
  ('CONC(=O)Nc1ccc(-c2sc3c(c2CN(C)C)c(=O)n(-c2ccc(OC)nn2)c(=O)n3Cc2c(F)cccc2C(F)(F)F)cc1', '< 13.5 mL/min/kg'),
  ('CNc1ccc(-n2c(=O)c3c(CN(C)C)c(-c4ccc(NC(=O)NOC)cc4)sc3n(Cc3c(F)cccc3F)c2=O)nn1', '34.9 mL/min/kg');

Moving on to the next compound.
Query: Please give the measured CLint scaled for this compound: CONC(=O)Nc1ccc(-c2oc3c(c2CN(C)C)c(=O)n(-c2ccc(OC)nn2)c(=O)n3Cc2c(F)cccc2F)cc1
Reply: < 13.5 mL/min/kg
